Assay Summary: TD Phase (Groups 1 and 3): plasma and ocular tissue concentrations and pharmacokinetics of Compound 18 and its metabolite Compound 4 after once daily ocular instillation of Compound 18 nanosuspension for 7 days
Assay type: in vivo, New Zealand white rabbits
Condition Context: male, New Zealand white, rabbit, topical or ocular; Sclera/Choroid; Day 7; Compound 18 0.8 mg/kg ocular instillation once daily; Groups 1 and 3
Assay Readout: half-life (h)
Please reply with the bare figure in h and do not write the unit itself.

The recorded half-life for `CCCc1nn(C)c2c(=O)[nH]c(-c3cc(S(=O)(=O)N4CC(CCCO)C4)ccc3OCC)nc12` is 1.74

###

Assay Summary: TD Phase (Groups 1 and 3): plasma and ocular tissue concentrations and pharmacokinetics of Compound 18 and its metabolite Compound 4 after once daily ocular instillation of Compound 18 nanosuspension for 7 days
Format: in vivo, New Zealand white rabbits
Condition Context: male, New Zealand white, rabbit, plasma, other: ocular instillation, 0.8 mg/kg/day, TD Phase, Group 3, 0.5 h, individual animals; read-out: Compound 4 Plasma Conc.
Assay Readout: concentration at 0.5 h (ng/mL)
Please reply with the bare figure in ng/mL and do not write the unit itself.

The recorded concentration at 0.5 h for `CCCc1nn(C)c2c(=O)[nH]c(-c3cc(S(=O)(=O)N4CC(CCCO)C4)ccc3OCC)nc12` is 1.22

###

Assay Summary: TD Phase (Groups 1 and 3): plasma and ocular tissue concentrations and pharmacokinetics of Compound 18 and its metabolite Compound 4 after once daily ocular instillation of Compound 18 nanosuspension for 7 days
Type: in vivo, New Zealand white rabbits
Condition Context: male, New Zealand white, rabbit, topical or ocular; Plasma; Day 7; Compound 18 0.8 mg/kg ocular instillation once daily; Groups 1 and 3
Assay Readout: Cmax (ng/mL)
Please reply with the bare figure in ng/mL and do not write the unit itself.

The recorded Cmax for CCCc1nn(C)c2c(=O)[nH]c(-c3cc(S(=O)(=O)N4CC(CCCO)C4)ccc3OCC)nc12 [Compound 4] is 1.02

###

Overview of reported AUC(0-t) across a group of compounds:
Assay Summary: PK Phase (Group 2): plasma concentrations and pharmacokinetics of Compound 18 and its metabolite Compound 4 after once daily ocular instillation of Compound 18 nanosuspension for 7 days
Assay type: in vivo, New Zealand white rabbits
Condition Context: male, New Zealand white, rabbit, plasma, topical or ocular, 0.8 mg/kg, plasma, Day 1, Compound 18 0.8 mg/kg ocular instillation; animal 207664; read-out: AUC0-24
Please reply with the bare figure in ng·h/mL and do not write the unit itself.

- CCCc1nn(C)c2c(=O)[nH]c(-c3cc(S(=O)(=O)N4CC(CCCO)C4)ccc3OCC)nc12: 0.575

// next entry
The recorded AUC(0-t) for `CCCc1nn(C)c2c(=O)[nH]c(-c3cc(S(=O)(=O)N4CC(CCCO[N+](=O)[O-])C4)ccc3OCC)nc12` is 0.0216

###

Experimental System: human PDE-6C (Homo sapiens)
Sequence (P51160 whole entry): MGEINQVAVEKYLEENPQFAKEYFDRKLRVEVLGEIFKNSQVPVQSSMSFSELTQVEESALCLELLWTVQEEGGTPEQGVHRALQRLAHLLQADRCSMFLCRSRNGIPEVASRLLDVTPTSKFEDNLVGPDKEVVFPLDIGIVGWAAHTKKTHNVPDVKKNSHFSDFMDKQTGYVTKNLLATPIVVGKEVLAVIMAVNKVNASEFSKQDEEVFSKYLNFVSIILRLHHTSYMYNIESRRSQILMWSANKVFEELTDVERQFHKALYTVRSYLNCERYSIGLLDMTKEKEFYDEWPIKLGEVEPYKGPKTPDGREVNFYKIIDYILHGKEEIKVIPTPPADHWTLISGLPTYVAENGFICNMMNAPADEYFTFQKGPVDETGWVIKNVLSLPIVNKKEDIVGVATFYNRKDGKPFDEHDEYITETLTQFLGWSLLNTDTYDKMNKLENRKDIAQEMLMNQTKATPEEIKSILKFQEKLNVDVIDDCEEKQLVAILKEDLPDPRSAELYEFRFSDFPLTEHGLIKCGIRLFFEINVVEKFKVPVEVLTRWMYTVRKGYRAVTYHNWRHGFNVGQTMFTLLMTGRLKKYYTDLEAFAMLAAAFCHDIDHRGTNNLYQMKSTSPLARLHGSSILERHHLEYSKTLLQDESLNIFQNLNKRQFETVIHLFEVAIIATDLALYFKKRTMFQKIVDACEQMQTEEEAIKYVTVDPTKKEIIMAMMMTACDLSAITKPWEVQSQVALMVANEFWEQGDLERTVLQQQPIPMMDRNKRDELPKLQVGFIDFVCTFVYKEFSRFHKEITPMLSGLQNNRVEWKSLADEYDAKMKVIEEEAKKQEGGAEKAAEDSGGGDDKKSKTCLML
Assay Summary: Human PDE-6C inhibition assay (fluorescence polarization, FAM-cGMP)
Assay type: biochemical
Overview of reported IC50 across a group of compounds:

Worked set:
• CCCc1nn(C)c2c(=O)[nH]c(-c3cc(S(=O)(=O)N4CC(N(CCCO[N+](=O)[O-])CCCO[N+](=O)[O-])C4)ccc3OCC)nc12 [Compound 38] = 10 to 100 nM
• CCCc1nn(C)c2c(=O)[nH]c(-c3cc(S(=O)(=O)N4CC(NCCOC(=O)CCCCC(CO[N+](=O)[O-])O[N+](=O)[O-])C4)ccc3OCC)nc12 (centres unmarked) [Compound 69] = < 10 nM
• CCCc1nn(C)c2c(=O)[nH]c(-c3cc(S(=O)(=O)N4CC(N(C)CCOC(=O)CCCCC(CO[N+](=O)[O-])O[N+](=O)[O-])C4)ccc3OCC)nc12 (centres unmarked) [Compound 70] = < 10 nM

The recorded IC50 for CCCc1nn(C)c2c(=O)[nH]c(-c3cc(S(=O)(=O)N4CC(CCCOC(=O)CCC(CO[N+](=O)[O-])O[N+](=O)[O-])C4)ccc3OCC)nc12 (centres unmarked) [Compound 73] is < 10 nM

The recorded IC50 for CCCc1nn(C)c2c(=O)[nH]c(-c3cc(S(=O)(=O)N4CC(CCCOC(=O)CCCCC(CO[N+](=O)[O-])O[N+](=O)[O-])C4)ccc3OCC)nc12 (centres unmarked) [Compound 68] is < 10 nM

###

Experimental System: human PDE-5A1 (Homo sapiens)
Assay Summary: Human PDE-5A1 inhibition assay (fluorescence polarization, FAM-cGMP)
Format: biochemical
Condition Context: read-out: IC50 (μM) PDE5A1
Assay Readout: IC50

- CCCc1nn(C)c2c(=O)[nH]c(-c3cc(S(=O)(=O)N4CC(OCCO)C4)ccc3OCC)nc12: 0.01 to 0.1 µM

// next entry
The recorded IC50 for `CCCc1nn(C)c2c(=O)[nH]c(-c3cc(S(=O)(=O)N4CC(OCCO[N+](=O)[O-])C4)ccc3OCC)nc12` is 0.01 to 0.1 µM

###

Assay Summary: TD Phase (Groups 1 and 3): plasma and ocular tissue concentrations and pharmacokinetics of Compound 18 and its metabolite Compound 4 after once daily ocular instillation of Compound 18 nanosuspension for 7 days
Assay type: in vivo, New Zealand white rabbits
Condition Context: male, New Zealand white, rabbit, lens, topical, 2 mg/day, TD Phase, Group 3, 2 h, Mean; read-out: Final Compound 18 Lens Conc.
Assay Readout: concentration at 2 h (ng/g)
Please reply with the bare figure in ng/g and do not write the unit itself.

The recorded concentration at 2 h for `CCCc1nn(C)c2c(=O)[nH]c(-c3cc(S(=O)(=O)N4CC(CCCO[N+](=O)[O-])C4)ccc3OCC)nc12` is 0

###

Assay Summary: TD Phase (Groups 1 and 3): plasma and ocular tissue concentrations and pharmacokinetics of Compound 18 and its metabolite Compound 4 after once daily ocular instillation of Compound 18 nanosuspension for 7 days
Type: in vivo, New Zealand white rabbits
Condition Context: male, New Zealand white, rabbit, topical or ocular; Cornea; Day 7; Compound 18 0.8 mg/kg ocular instillation once daily; Groups 1 and 3
Assay Readout: half-life (min)
Please reply with the bare figure in min and do not write the unit itself.

The recorded half-life for `CCCc1nn(C)c2c(=O)[nH]c(-c3cc(S(=O)(=O)N4CC(CCCO)C4)ccc3OCC)nc12` is 158

###

Experimental System: human PDE-5A1 (Homo sapiens, UniProt O76074)
Assay Summary: Human PDE-5A1 inhibition assay (fluorescence polarization, FAM-cGMP)
Assay type: biochemical
Condition Context: read-out: IC50 (μM) PDE5A1
Assay Readout: IC50

Worked set:
- CCCc1nn(C)c2c(=O)[nH]c(-c3cc(S(=O)(=O)N4CC(N(CCCO)CCCO)C4)ccc3OCC)nc12: < 0.01 µM
- CCCc1nn(C)c2c(=O)[nH]c(-c3cc(S(=O)(=O)N4CC(CN5CC(CO[N+](=O)[O-])C5)C4)ccc3OCC)nc12: 0.01 to 0.1 µM
- CCCc1nn(C)c2c(=O)[nH]c(-c3cc(S(=O)(=O)N4CC(CO)C4)ccc3OCC)nc12: 0.01 to 0.1 µM
- CCCc1nc(C)c2c(=O)[nH]c(-c3cc(S(=O)(=O)N4CC(N(C)CCCO)C4)ccc3OCC)nn12: < 0.01 µM
- CCCc1nn(C)c2c(=O)[nH]c(-c3cc(S(=O)(=O)N4CC(N(C)CCOC(=O)CCCCCO[N+](=O)[O-])C4)ccc3OCC)nc12: < 0.01 µM
- CCCc1nn(C)c2c(=O)[nH]c(-c3cc(S(=O)(=O)N4CC(CN5CC(CO)C5)C4)ccc3OCC)nc12: 0.01 to 0.1 µM

// compound `CCCc1nn(C)c2c(=O)[nH]c(-c3cc(S(=O)(=O)N4CC(NCCO)C4)ccc3OCC)nc12` , assay human PDE-5A1 (Homo sapiens, UniProt O76074), IC50 value: 0.01 to 0.1 µM

// compound `CCCc1nn(C)c2c(=O)[nH]c(-c3cc(S(=O)(=O)N4CC(NCCOC(=O)CCCCO[N+](=O)[O-])C4)ccc3OCC)nc12` , assay human PDE-5A1 (Homo sapiens, UniProt O76074), IC50 value: < 0.01 µM

// compound `CCCc1nn(C)c2c(=O)[nH]c(-c3cc(S(=O)(=O)N4CC(NCCCO[N+](=O)[O-])C4)ccc3OCC)nc12` , assay human PDE-5A1 (Homo sapiens, UniProt O76074), IC50 value: < 0.01 µM

// compound `CCCc1nc(C)c2c(=O)[nH]c(-c3cc(S(=O)(=O)NC4CN(CCO)C4)ccc3OCC)nn12` , assay human PDE-5A1 (Homo sapiens, UniProt O76074), IC50 value: < 0.01 µM

// compound `CCCc1nn(C)c2c(=O)[nH]c(-c3cc(S(=O)(=O)NC4CN(CCO[N+](=O)[O-])C4)ccc3OCC)nc12` , assay human PDE-5A1 (Homo sapiens, UniProt O76074), IC50 value: < 0.01 µM

// compound `CCCc1nn(C)c2c(=O)[nH]c(-c3cc(S(=O)(=O)N4CC(CCO)C4)ccc3OCC)nc12` , assay human PDE-5A1 (Homo sapiens, UniProt O76074), IC50 value: < 0.01 µM

// compound `CCCc1nn(C)c2c(=O)[nH]c(-c3cc(S(=O)(=O)NC4CN(CCO)C4)ccc3OCC)nc12` , assay human PDE-5A1 (Homo sapiens, UniProt O76074), IC50 value: 0.01 to 0.1 µM
